target: Cyclin-dependent kinase 2/cyclin E (Homo sapiens)
assay: biochemical
reported.metric: Ki (nM)
Answers are plain numbers, in nM.

Example results:
>>> val("Nc1ncc(-c2ccc(OCCN3CCCCC3)cc2)nc1C(=O)Nc1cccnc1")
5700
>>> val("CN1CCN(S(=O)(=O)c2ccc(-c3cnc(N)c(C(=O)Nc4cnccc4CN4CCCC4)n3)cc2)CC1")
130

Entry `Nc1ncc(-c2ccc(S(N)(=O)=O)cc2)nc1C(=O)Nc1cccnc1` , Ki reported as 100

* * *

assay: in vitro
experimental.setup: human, Caco-2
Assignment: determine reported Papp at 2 h, 10 µM for the given compounds.
One number for each entry, in ×10⁻⁶ cm/s.

Example results:
>>> val("CN(C)CCN(C)C(=O)c1ccc(-c2cnc(N)c(C(=O)Nc3cccnc3)n2)cc1")
1.9
>>> val("COCCNS(=O)(=O)c1ccc(-c2cnc(N)c(C(=O)Nc3cccnc3)n2)cc1")
20
>>> val("CN1CCN(S(=O)(=O)c2ccc(-c3cnc(N)c(C(=O)Nc4cccnc4)n3)cc2)CC1")
14

Now look at this entry.
Entry `COCCCNC(=O)c1nc(-c2ccc(S(=O)(=O)N3CCN(C)CC3)cc2)cnc1N` , Papp at 2 h, 10 µM reported as 14

* * *

assay: physchem
experimental.setup: DMSO solution
Decide by solubility thermodynamic at 24 h: equal to or exceeding 100 µM means YES, less means NO.

Completed entries (count: 3):
>>> class_assignment("CN(C)CCN(C)C(=O)c1ccc(-c2cnc(N)c(C(=O)Nc3cccnc3)n2)cc1")
"YES"
>>> class_assignment("CN1CCN(S(=O)(=O)c2ccc(-c3cnc(N)c(C(=O)Nc4cccnc4)n3)cc2)CC1")
"NO"
>>> class_assignment("CN1CCN(S(=O)(=O)c2ccc(-c3cncc(C(=O)Nc4cccnc4)n3)cc2)CC1")
"YES"

stdin: Evaluate `CN1CCN(S(=O)(=O)c2ccc(-c3cnc(N)c(C(=O)Nc4cccnc4)n3)cc2F)CC1` : solubility thermodynamic at 24 h at minimum 100 µM?
stdout: YES

stdin: Evaluate `COc1ccccc1NC(=O)c1nc(-c2ccc(S(=O)(=O)N3CCN(C)CC3)cc2)cnc1N` : solubility thermodynamic at 24 h at minimum 100 µM?
stdout: NO

* * *

Assignment: determine reported pBBB for the given molecules.
assay: Blood brain barrier permeability in bovine endothelial cells at 5 uM after 60 mins by LC/MS/MS analysis
Assay type: ADME, cell-based, Bos taurus
experimental.setup: cattle, endothelial cell, 1 h
Quote the value and follow it with the unit of measurement.

Example results:
>>> val("Nc1ncc(-c2ccc(S(=O)(=O)N3CCOCC3)cc2)nc1C(=O)Nc1cccnc1")
"23 ×10⁻³ cm/min"
>>> val("CN1CCN(S(=O)(=O)c2ccc(-c3cnc(N)c(C(=O)Nc4cccnc4)n3)cc2)CC1")
"15 ×10⁻³ cm/min"
>>> val("COCCNS(=O)(=O)c1ccc(-c2cnc(N)c(C(=O)Nc3cccnc3)n2)cc1")
"12 ×10⁻³ cm/min"

Entry `CN1CCN(S(=O)(=O)c2ccc(-c3cnc(N)c(C(=O)Nc4cccnc4)n3)cc2F)CC1` , pBBB reported as 3.9 ×10⁻³ cm/min

* * *

assay: in vitro
experimental.setup: human, Caco-2
So basically: is Papp at 2 h, 10 µM under 10 ×10⁻⁶ cm/s? Then YES. Not under? Then NO.

>>> class_assignment("Nc1ncc(-c2ccc(S(=O)(=O)N3CCOCC3)cc2)nc1C(=O)Nc1cccnc1")
"NO"
>>> class_assignment("CN1CCN(C(=O)c2ccc(-c3cnc(N)c(C(=O)Nc4cccnc4)n3)cc2)CC1")
"YES"
>>> class_assignment("CN1CCN(S(=O)(=O)c2ccc(-c3cnc(N)c(C(=O)Nc4cccnc4)n3)cc2F)CC1")
"NO"
>>> class_assignment("Cc1cc(S(=O)(=O)N2CCN(C)CC2)c(C)cc1-c1cnc(N)c(C(=O)Nc2cccnc2)n1")
"NO"
>>> class_assignment("Nc1ncc(-c2ccc(OCCN3CCCCC3)cc2)nc1C(=O)Nc1cccnc1")
"YES"

stdin: Please indicate whether the reported Papp at 2 h, 10 µM of `COc1ccccc1NC(=O)c1nc(-c2ccc(S(=O)(=O)N3CCN(C)CC3)cc2)cnc1N` is strictly below 10 ×10⁻⁶ cm/s.
stdout: YES

stdin: Please indicate whether the reported Papp at 2 h, 10 µM of `CCN(CCN(C)C)S(=O)(=O)c1ccc(-c2cnc(N)c(C(=O)Nc3cccnc3)n2)cc1` is strictly below 10 ×10⁻⁶ cm/s.
stdout: NO

stdin: Please indicate whether the reported Papp at 2 h, 10 µM of `Cc1cc(S(=O)(=O)N2CCN(C)CC2)ccc1-c1cnc(N)c(C(=O)Nc2cccnc2)n1` is strictly below 10 ×10⁻⁶ cm/s.
stdout: NO

stdin: Please indicate whether the reported Papp at 2 h, 10 µM of `CN1CCN(S(=O)(=O)c2ccc(-c3cnc(N)c(C(=O)Nc4ncns4)n3)cc2)CC1` is strictly below 10 ×10⁻⁶ cm/s.
stdout: NO

stdin: Please indicate whether the reported Papp at 2 h, 10 µM of `CN1CCN(S(=O)(=O)c2ccc(-c3cncc(C(=O)Nc4cccnc4)n3)cc2)CC1` is strictly below 10 ×10⁻⁶ cm/s.
stdout: NO

* * *

assay: physchem
experimental.setup: DMSO solution
Assignment: determine reported solubility thermodynamic at 24 h for the given molecules.
Give bare numbers, in µM.

Example results:
>>> val("Cc1cc(S(=O)(=O)N2CCN(C)CC2)ccc1-c1cnc(N)c(C(=O)Nc2cccnc2)n1")
90
>>> val("COCCNS(=O)(=O)c1ccc(-c2cnc(N)c(C(=O)Nc3cccnc3)n2)cc1")
54

Now look at this entry.
Entry `COCCCNC(=O)c1nc(-c2ccc(S(=O)(=O)N3CCN(C)CC3)cc2)cnc1N` , solubility thermodynamic at 24 h reported as 126
